Molecular target: hERG (Homo sapiens, UniProt Q12809)
Construct: Eurofins Discovery Services (contract assay) CYL8038QP2DR
Sequence (Q12809 whole entry): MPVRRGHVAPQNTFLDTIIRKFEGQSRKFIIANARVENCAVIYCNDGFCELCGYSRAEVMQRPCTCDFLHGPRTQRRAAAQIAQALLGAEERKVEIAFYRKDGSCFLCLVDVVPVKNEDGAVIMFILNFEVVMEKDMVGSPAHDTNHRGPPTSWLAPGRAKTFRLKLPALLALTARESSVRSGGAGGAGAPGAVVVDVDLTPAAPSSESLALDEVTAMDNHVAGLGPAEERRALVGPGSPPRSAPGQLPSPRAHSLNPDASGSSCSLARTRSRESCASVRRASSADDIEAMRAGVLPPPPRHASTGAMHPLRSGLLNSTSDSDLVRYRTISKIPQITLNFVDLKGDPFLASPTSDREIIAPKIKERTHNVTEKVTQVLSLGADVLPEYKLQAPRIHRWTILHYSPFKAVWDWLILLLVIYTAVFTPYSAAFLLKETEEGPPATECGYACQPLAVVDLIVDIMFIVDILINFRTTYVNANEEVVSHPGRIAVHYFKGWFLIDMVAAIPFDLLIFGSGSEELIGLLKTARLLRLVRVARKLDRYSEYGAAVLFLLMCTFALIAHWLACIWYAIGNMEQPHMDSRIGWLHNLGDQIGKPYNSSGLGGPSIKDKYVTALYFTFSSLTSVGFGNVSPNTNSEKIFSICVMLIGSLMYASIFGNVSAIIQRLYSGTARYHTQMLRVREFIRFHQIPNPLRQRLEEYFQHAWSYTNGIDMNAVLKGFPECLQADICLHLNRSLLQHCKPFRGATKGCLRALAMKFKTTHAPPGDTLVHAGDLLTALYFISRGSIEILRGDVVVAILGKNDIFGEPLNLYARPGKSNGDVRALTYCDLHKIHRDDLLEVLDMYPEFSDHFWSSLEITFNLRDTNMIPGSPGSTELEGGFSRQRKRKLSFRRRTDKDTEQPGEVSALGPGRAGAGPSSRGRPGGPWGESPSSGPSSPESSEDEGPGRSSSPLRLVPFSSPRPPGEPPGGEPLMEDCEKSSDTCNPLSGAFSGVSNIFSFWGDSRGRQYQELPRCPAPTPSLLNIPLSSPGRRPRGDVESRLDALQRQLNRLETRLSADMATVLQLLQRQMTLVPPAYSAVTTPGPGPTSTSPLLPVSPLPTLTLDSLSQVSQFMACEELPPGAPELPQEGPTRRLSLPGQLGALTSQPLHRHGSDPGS
Experiment: Cardiac Ion Channel Panel
Assay type: cell-based
Settings: hERG antagonist; CYL8038QP2DR; read-out: IC50 (µM) reported
value type: IC50

In [3]: df
Out[3]:
                            chemical_string  value_type  reported_measurement
0  O=C(Nc1nnc(-c2ccc(F)cc2)o1)N1CCc2ccccc2C1        IC50               > 30 µM

====

Assay: Mammalian cell cytotoxicity (CC50)
Assay type: cell-based, human
Details: human, HeLa cells (ATCC CCL-2), HeLa cytotoxicity, one value per replicate
value type: CC50 (µM)

                           chemical_string  value_type  reported_measurement
0  O=C(Nc1nnc(-c2ccc(F)cc2)o1)c1ccc(Cl)cc1        CC50                  30.5
